- measurement target: hsSUMO2-MBP fusion protein

{"protein": "bdSENP1^MutJ (protein) PFVPLTDEDEDNVRHALGGRKESETLSVHEASSIVITREILQCLNDKEWLNDEVINLYLELLKERELREPNKFLKCHFFNTFFYKKLINGGYDYKSVRSWTTTRKLGYNLIDCDKIFVPIHKDVHWCLAVINIKEKKFQYLDSLGYMDMKALRILAKYLVDEVKDKSGKQIDVHAWKQEGVQNLPLQENGWDCGMFMLKYIDFYSRDMELVFGQKHMSYFRRRTAKEILDLKAG", "cleavage of the SUMO fusion protein": "< 50 % cleavage"}
{"protein": "SUMOstar protease (protein) LVPELNEKDDDQVQKALASRENTQLMNRDNIEITVRDFKTLAPRRWLNSGIISFFMKYIEKSTPNTVAFNSFFYTNLSERGYQGVRRWMKRKKTQIDKLDKIFTPINLNQSHWALGIIDLKKKTIGYVDSLSNGPNAMSFAILTDLQKYVMEESKHTIGEDFDLIHLDCPQQPNGYDCGIYVCMNTLYGSADAPLDFDYKDAIRMRRFIAHLILTDALK", "cleavage of the SUMO fusion protein": "< 25 % cleavage"}
